Exercise: state measured EC50 for each of the compounds provided.
- Tested on: Ramos cells
- run description: Cytotoxicity (cell death) in Ramos cells
- Type: cell-based
- condition set: Homo sapiens, Ramos

Reported EC50, compound `O=C(/N=C(/NCCc1c[nH]cn1)Nc1cccc2cc[nH]c12)c1cccc(Cl)c1` : ____
> 30 µM

Queued: `O=C(/N=C(\Nc1ccc(-c2ccccc2)cc1)Nc1cccc2[nH]ccc12)c1cccc(Cl)c1`
> 10 µM

Queued: `O=C(/N=C(\Nc1ccc(-c2ccccc2)cc1)Nc1ccc2[nH]ccc2c1)c1cccc(Cl)c1`
< 10 µM

Queued: `O=C(/N=C(/NCCc1c[nH]cn1)Nc1cccc2[nH]ccc12)c1cccc(Cl)c1`
> 30 µM

Queued: `O=C(/N=C(/NCc1cccc2[nH]ccc12)Nc1ccc(-c2ccccc2)cc1)c1cccc(Cl)c1`
> 30 µM

Queued: `O=C(/N=C(/NCCn1ccnc1)Nc1ccc(-c2ccccc2)cc1)c1cccc(Cl)c1`
> 10 µM

Queued: `C[C@H](Cc1c[nH]cn1)N/C(=N/C(=O)c1cccc(Cl)c1)Nc1ccc(-c2ccccc2)cc1`
< 10 µM

Queued: `O=C(/N=C(/NCCc1c[nH]cn1)Nc1ccc2[nH]ccc2c1)c1cccc(Cl)c1`
> 20 µM
